// data source = ChEMBL document CHEMBL1275331

# concentration at 8 h values compiled below
Assay: Drug level in Sprague-Dawley rat blood at 3 mg/kg, po after 8 hrs by HPLC analysis
Type: ADME, organism-based
Set-up: dose 3 mg/kg, route oral
Details: whole blood, read-out: Drug uptake
MEASUREMENT TYPE: concentration at 8 h

chemical_structure=Nn1c(CCCCN2CCN(c3ccc4ccccc4n3)CC2)nc2c(c1=O)CCCC2 measured_result="9.97 nM"
chemical_structure=CC(=O)N1CCc2c(sc3nc(SCCCN4CCN(c5ccc6ccccc6n5)CC4)n(N)c(=O)c23)C1 measured_result="8.98 nM"
chemical_structure=Nn1c(CCCCN2CCN(c3ccc4ccccc4n3)CC2)nc2ccccc2c1=O measured_result="28.3 nM"
chemical_structure=CC(=O)N1CCc2c(sc3nc(CCCCN4CCN(c5ccc6ccccc6n5)CC4)n(N)c(=O)c23)C1 measured_result="43.7 nM"
chemical_structure=Nn1c(SCCCN2CCN(c3ccc4ccccc4n3)CC2)nc2c(c1=O)CCCC2 measured_result="5.17 nM"

* * *

Quick reference for pIC50 among some molecules
Biological target: 5-hydroxytryptamine receptor 1A (Homo sapiens)
Sequence (P08908 whole entry): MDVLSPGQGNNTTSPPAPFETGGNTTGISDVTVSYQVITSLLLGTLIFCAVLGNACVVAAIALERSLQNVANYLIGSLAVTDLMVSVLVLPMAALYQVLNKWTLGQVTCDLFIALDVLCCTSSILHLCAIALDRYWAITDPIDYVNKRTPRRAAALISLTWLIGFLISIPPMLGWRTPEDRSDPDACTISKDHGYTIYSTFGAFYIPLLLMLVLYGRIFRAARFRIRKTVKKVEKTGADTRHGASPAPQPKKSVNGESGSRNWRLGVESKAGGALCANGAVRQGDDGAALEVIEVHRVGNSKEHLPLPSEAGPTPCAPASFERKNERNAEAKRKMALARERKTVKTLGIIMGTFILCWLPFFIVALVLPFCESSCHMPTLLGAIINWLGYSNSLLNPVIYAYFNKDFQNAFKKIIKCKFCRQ
Assay: Displacement of [3H]8-OH-DPAT from human 5HT1A receptor expressed in CHO cells by liquid scintillation counting
Type: cell-based
pIC50: −log10 of the molar value.
MEASUREMENT TYPE: pIC50

molecule=Nn1c(SCCCN2CCN(c3ccc4ccccc4n3)CC2)nc2ccccc2c1=O measured_result=7.61
molecule=Nn1c(CCCCN2CCN(c3ccc4ccccc4n3)CC2)nc2ccc(Cl)cc2c1=O measured_result="> 8.00"
molecule=Cc1sc2nc(SCCCN3CCN(c4ccccn4)CC3)n(N)c(=O)c2c1C measured_result=8.38
molecule=Nn1c(CN2CCN(c3ccc4ccccc4n3)CC2)nc2c(c1=O)CCCC2 measured_result="< 7.00"
molecule="CC1CCc2c(nc(CCCCN3CCN(c4ccc5ccccc5n4)CC3)n(N)c2=O)C1 (stereo not given)" measured_result="> 8.00"
molecule=Nn1c(CCCCN2CCN(c3nc4ccccc4c4c3CCCC4)CC2)nc2c(c1=O)CCCC2 measured_result="< 7.00"
molecule=Cc1ccc2nc(CCCCN3CCN(c4ccc5ccccc5n4)CC3)n(N)c(=O)c2c1 measured_result="> 8.00"
molecule=Nn1c(CCCCN2CCN(c3ccc4ccccc4n3)CC2)nc2cccc(Cl)c2c1=O measured_result="> 8.00"
molecule=Cc1sc2nc(CCCCN3CCN(c4ccc5ccccc5n4)CC3)n(N)c(=O)c2c1C measured_result="> 8.00"
molecule=O=c1[nH]c(CCCCN2CCN(c3ccc4ccccc4n3)CC2)nc2c1CCCC2 measured_result=8.21

* * *

Target: Adenosine receptor A2a (Homo sapiens)
Sequence (P29274 whole entry): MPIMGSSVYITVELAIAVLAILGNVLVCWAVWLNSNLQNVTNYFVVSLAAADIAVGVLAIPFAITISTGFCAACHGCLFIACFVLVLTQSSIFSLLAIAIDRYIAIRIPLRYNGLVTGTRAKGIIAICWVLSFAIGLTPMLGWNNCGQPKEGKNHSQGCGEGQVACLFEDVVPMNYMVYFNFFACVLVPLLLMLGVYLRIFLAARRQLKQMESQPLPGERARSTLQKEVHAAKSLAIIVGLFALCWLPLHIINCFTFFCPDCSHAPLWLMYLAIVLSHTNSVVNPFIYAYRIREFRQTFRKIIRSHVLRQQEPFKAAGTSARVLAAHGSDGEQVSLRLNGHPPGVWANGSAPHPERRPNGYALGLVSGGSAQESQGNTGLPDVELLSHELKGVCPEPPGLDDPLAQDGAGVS
Experiment: Displacement of [3H]CGS21680 from human recombinant adenosine A2A receptor
MEASUREMENT TYPE: IC50

chemical_structure=Nn1c(CCCCN2CCN(c3ccc4ccccc4n3)CC2)nc2c(c1=O)CCCC2 measured_result="> 1000 nM"

* * *

Biological target: UniProt P25021
Sequence (P25021 whole entry): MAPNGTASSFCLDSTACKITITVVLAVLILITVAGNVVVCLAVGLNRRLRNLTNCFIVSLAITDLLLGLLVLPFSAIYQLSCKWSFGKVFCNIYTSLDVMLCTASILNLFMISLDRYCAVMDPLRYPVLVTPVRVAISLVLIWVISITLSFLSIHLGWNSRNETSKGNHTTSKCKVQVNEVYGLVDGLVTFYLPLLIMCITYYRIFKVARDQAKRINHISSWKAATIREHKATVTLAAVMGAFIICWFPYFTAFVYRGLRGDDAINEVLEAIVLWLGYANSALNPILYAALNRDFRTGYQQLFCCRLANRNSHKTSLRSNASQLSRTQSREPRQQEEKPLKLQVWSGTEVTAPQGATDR
Assay: Displacement of [125I]APT from human recombinant histamine H2 receptor
pIC50: −log10 of the molar value.
MEASUREMENT TYPE: pIC50

chemical_structure=Nn1c(CCCCN2CCN(c3ccc4ccccc4n3)CC2)nc2c(c1=O)CCCC2 system_tested="UniProt P25021" measured_result="< 6.00"

* * *

Biological target: Adenosine receptor A3 (Homo sapiens, UniProt P0DMS8)
Sequence (P0DMS8 whole entry): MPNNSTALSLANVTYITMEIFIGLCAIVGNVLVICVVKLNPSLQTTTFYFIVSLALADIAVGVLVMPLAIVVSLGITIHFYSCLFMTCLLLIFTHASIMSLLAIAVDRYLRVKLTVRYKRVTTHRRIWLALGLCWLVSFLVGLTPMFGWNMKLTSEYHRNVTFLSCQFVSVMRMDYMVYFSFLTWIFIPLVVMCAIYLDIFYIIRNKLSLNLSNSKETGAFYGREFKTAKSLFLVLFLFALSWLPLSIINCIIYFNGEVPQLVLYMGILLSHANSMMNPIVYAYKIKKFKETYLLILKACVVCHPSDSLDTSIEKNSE
Assay: Displacement of [125I]AB-MECA from human recombinant adenosine A3 receptor
pIC50: −log10 of the molar value.
MEASUREMENT TYPE: pIC50

chemical_structure=Nn1c(CCCCN2CCN(c3ccc4ccccc4n3)CC2)nc2c(c1=O)CCCC2 system_tested="Adenosine receptor A3 (Homo sapiens, UniProt P0DMS8)" measured_result="< 6.00"
